For each record, write down the corresponding EC50.
# target system: T1, cyno EpCAM (recombinant, ELISA antigen) (cynomolgus monkey)
# T1 construct: extracellular domain; also called cynomolgus EpCAM extracellular domain
# T1 sequence (Q1WER1 24-265): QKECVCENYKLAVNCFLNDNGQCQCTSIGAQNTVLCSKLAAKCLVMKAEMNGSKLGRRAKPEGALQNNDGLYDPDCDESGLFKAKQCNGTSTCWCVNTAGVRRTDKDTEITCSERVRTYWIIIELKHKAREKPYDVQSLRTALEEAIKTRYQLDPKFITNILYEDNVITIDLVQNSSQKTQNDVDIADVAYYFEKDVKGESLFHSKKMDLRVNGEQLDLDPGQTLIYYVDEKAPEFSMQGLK
# assay overview: ELISA, cyno EpCAM, pH 6.0
# Method: The binding activities of the humanized conditionally active anti-EpCAM antibodies to cyno EpCAM were similarly measured. The EC50 for binding to the cyno EpCAM at pH 6.0 and pH 7.4 for the humanized conditionally active anti-EpCAM antibodies are summarized in Table 7. The ELISA assay was performed using the following protocol: [0388] […]
Express it in µg/mL; write the number only.

Quick check: EC50 of BAP-105.4-01-02 (antibody, V domains shown, Humanized) VH: EVQLVQSGAEVKKPGESLRISCKGSGYTFTSYWMHWIRQSPSRGLEWLGYIRPSTGYTEYNQKFKDRVTISADKSISTAYLQWSSLKASDTAMYYCGRGDNWVGFANWGQGTLVTVSS VL: EIVLTQSPDFQSVTPKEKVTITCSASSSISYMHWYQQKPGKAPKLLIYSTSNLASGVPDRFSGSGSGTDFTLKISRVEAEDVGVYYCHQWSTYETFGQGTKVEIK ?
0.194

For BAP-105-01-01 (antibody, V domains shown, Non-conditionally active control; also called template antibody (WT)) VH: QVQLQQSGAELAKPGASVKVSCKASGYTFTSYWMHWVKQRPGQGLEWIGYIRPSTGYTEYNQKFKDKATLTADKSSSTAYMQLSSLTFEDSAVYYCGRGDNWVGFANWGQGTLVTVSA VL: QIVLTQSPAIMSASLGEEIALTCSASSSISYMHWYQQKSGTSPKLLIYSTSNLASGVPSRFSGSGSGTFYSLTISSVEAEDAADYFCHQWSTYHTFGSGTKLEIK then?
0.0112

For BAP-105.4-01-05 (antibody, V domains shown, Humanized) VH: EVQLVQSGAEVKKPGATVKISCKVSGYTFTSYWMHWIRQPPGKGLEWIGYIRPSTGYTEYNQKFKDRFTISRDNSKNTLYLQMNSLRAEDTAVYYCGRGDNWVGFANWGQGTLVTVSS VL: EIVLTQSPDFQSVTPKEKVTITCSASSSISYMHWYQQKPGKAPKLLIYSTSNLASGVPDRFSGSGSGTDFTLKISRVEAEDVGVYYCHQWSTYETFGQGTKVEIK then?
0.49
